# Tested on: Meloidogyne hapla J2
# test name: proportion of mobile M. hapla J2 relative to DMSO control (fraction of DMSO control); higher = more viable, less nematicidal, active = 0.7 or less
# run parameters: 60 µM; 5 days; temperature: 20 °C
The compounds listed here are annotated with their proportion of mobile M. hapla J2.
# output: bare number, no unit

compound	proportion of mobile M. hapla J2
COc1ccc(-c2noc(COc3ccc(Cl)cc3Cl)n2)cc1	0.874
Cc1cc(OCc2nc(-c3ccccc3)no2)ccc1Br	0.932
Brc1ccc(-c2nnc(SCc3ccccc3)o2)cc1	1.04

Note to self: proportion of mobile M. hapla J2 recorded for O=C(CSc1nnc(-c2ccccc2)o1)Nc1cccc(F)c1 was 0.853

Lab note: measured proportion of mobile M. hapla J2 of COc1ccc(C(=O)CSc2nnc(-c3cccc(Br)c3)o2)cc1 was 1.04

Per the records, this compound ( COc1cccc(-c2noc(COc3ccc(Br)cc3)n2)c1 ) has proportion of mobile M. hapla J2 equal to 0.942

response.value for O=C(CSc1nnc(-c2ccccc2)o1)Nc1cccc(Cl)c1 (field: proportion of mobile M. hapla J2) = 1

Measured proportion of mobile M. hapla J2 of Brc1ccccc1-c1nc(-c2ccc3c(c2)OCO3)no1 : 1.04

Entry under test: CCCCc1ccc(-c2nc(-c3cccnc3)no2)cc1 . Its proportion of mobile M. hapla J2 was 0.977

So for COc1cccc(-c2noc(-c3ccc(C)cc3)n2)c1 , the logged proportion of mobile M. hapla J2 turned out to be 0.948

Note to self: proportion of mobile M. hapla J2 recorded for N#Cc1ccc(CSc2nnc(-c3ccccc3)o2)cc1 was 0.798

Kindly note the recorded proportion of mobile M. hapla J2 for COc1ccc(OCc2nc(-c3ccccc3)no2)cc1 , which is 0.891

Sample Brc1cccc(-c2nc(-c3ccncc3)no2)c1 ; proportion of mobile M. hapla J2 observed: 0.991

# proportion of mobile M. hapla J2 (compound: COc1ccc(Cl)cc1-c1nnc(SCC(=O)Nc2nccs2)o1 ) is 0.826

---

# Tested on: Meloidogyne hapla J2
# test name: proportion of mobile M. hapla J2 relative to DMSO control (fraction of DMSO control); higher = more viable, less nematicidal, active = 0.7 or less
# run parameters: 60 µM; 5 days; temperature: 20 °C
This listing pairs molecules with measured proportion of mobile M. hapla J2.

Known results for molecules:
molecule	proportion of mobile M. hapla J2
Clc1cccc(-c2nc(-c3cccnc3)no2)c1	0.312 (active)
Cc1cccc(-c2noc(-c3ccccc3Cl)n2)c1	0.894 (inactive)
O=C(CSc1nnc(-c2ccccc2)o1)Nc1ccccc1F	0.85 (inactive)
FC(F)(F)c1cccc(-c2noc(-c3ccc4c(c3)OCO4)n2)c1	1.06 (inactive)
CCOc1ccccc1-c1nnc(SCC(=O)NC(C)CC)o1 (configuration not stated)	0.951 (inactive)
COc1ccc(-c2nnc(SCc3ccccc3C)o2)cc1	0.942 (inactive)
COc1ccc(-c2noc(-c3ccc(C)cc3)n2)cc1	0.998 (inactive)
Clc1cccc(-c2nc(-c3ccccc3Cl)no2)c1	0.991 (inactive)
Clc1ccc(OCc2nc(-c3ccccn3)no2)c(Br)c1	1.04 (inactive)
COc1nc(-c2ccccc2)ccc1-c1noc(-c2ccccc2Cl)n1	0.989 (inactive)

Record CC(C)c1ccc(NC(=O)CSc2nnc(-c3ccc(Br)cc3)o2)cc1 , field proportion of mobile M. hapla J2: 1.03 (inactive)

Summary for this molecule, Cc1ccccc1OCc1nc(-c2cccs2)no1 : proportion of mobile M. hapla J2 is 0.753 (inactive)

Values from the supplement of paper PMC11219838
